- Test system: H441
- Assay procedure: Proliferation assay (CellTiter Glo)
- Type: cell-based
- Condition summary: Homo sapiens, NCI-H441; H441 (K-RAS: G12V); absolute EC50; 96 hours; read-out: Ab EC50
Metric: EC50 (nM)

C/C=C(/C)C(=O)O[C@H]1C(C)=C[C@]23C(=O)[C@@H](C=C(CO)[C@@H](O)[C@]12O)[C@H]1[C@@H](C[C@H]3C)C1(C)C [Compound K102, ingenol-3-angelate] | 1010
CC(=O)O[C@H]1C(=O)[C@@]2(C)[C@H]([C@H](OC(=O)c3ccccc3)[C@]3(O)C[C@H](OC(=O)[C@H](O)[C@@H](NC(=O)c4ccccc4)c4ccccc4)C(C)=C1C3(C)C)[C@]1(OC(C)=O)CO[C@@H]1C[C@@H]2O | 35.8
